Test system: RPMI-8226
method.notes: NCI tumour cell line growth inhibition, 48 h
Activity calls are given as the source filed them. No stated cut-off is given here; in the data, active = GI50 up to about 1.1 µM and inactive = higher.
// one of active, inactive, no free text

molecule	experimental.system	answer.label
O=C(Cc1ccccc1)NCCc1ccc(O)c(O)c1	RPMI-8226	inactive
OC1=C(c2ccccc2)C2=NCCN2c2ccccc21	RPMI-8226	inactive
Cc1cc(C)nc(NS(=O)(=O)c2ccc(Nc3c4ccccc4nc4c(C(=O)Nc5ccc(S(=O)(=O)Nc6cc(C)on6)cc5)cccc34)cc2)n1	RPMI-8226	inactive
O=C(O)Cn1ccnc1[N+](=O)[O-]	RPMI-8226	inactive
C[Si](C)(OCCS(=O)(=O)O)C1S(=O)(=O)OCCOS1(=O)=O	RPMI-8226	inactive
N#CSC#Cc1ccc(C#CSC#N)cc1	RPMI-8226	inactive

Record request — test call for O=C(O)/C=C/C(=O)Nc1nc[nH]n1 inactive

Identify the outcome logged in this assay for the molecule shown: CN1CC=C(c2c(N)nc(N)[nH]c2=O)CC1 inactive

// return assay outcome for Cc1ccc(C(=O)CCl)o1 inactive

Which outcome did this test record for the molecule CO[C@@]12[C@H](COC(N)=O)C3=C(C(=O)C(C)=C(N)C3=O)N1C[C@@H]1N[C@@H]12 [MITOMYCIN] ? inactive

----------
Test system: 786-0
method.notes: NCI tumour cell line growth inhibition, 48 h
Calls of active or inactive are those of the source. Rule as the data show it: active = GI50 up to about 1.1 µM and inactive = higher.
Your response should consist of one outcome taken from YES = active, NO = inactive

compound	experimental.system	answer.label
Nc1ccc(-c2nc3ccccc3s2)cc1C(F)(F)F	786-0	NO

// outcome(item) with item = COC(=O)C(=O)C(C#N)c1nc2ccccc2s1 (stereo not given) NO

Recorded test outcome, item CC1=NN(C(=O)Cc2ccccc2)C(=O)/C1=C\c1ccco1 NO

Which outcome was entered for the compound CC(C)=CCC(O)C1=CC(=O)c2c(O)ccc(O)c2C1=O (stereo not given) in this test? YES

Could you kindly confirm the outcome this assay logged for N#CN1CCC2CC(=O)CCC2C1 (stereo not given) ? NO

Which result was noted for this compound in the test: COc1ccc2c(c1)[n+]([O-])c(/C(C)=N/NC(N)=S)c(C)[n+]2[O-] NO

Please let me know the test result on file for COC(=O)/C=C/c1cnc2c(c1)oc(=O)n2CCc1ccccn1 . NO

Any idea what this test logged for CC1CC(C)C(O)C(C2CC(CC(=O)NC3CCCCC3)CC(=O)O2)C1 (stereo not given) ? NO

Assay result, entry O=[N+]([O-])c1ccccc1S(=O)(=O)c1ccccc1[N+](=O)[O-] — outcome? NO

Tell me the assay call for CCOC(=O)/C=C(/C(=O)OCC)n1cc(C)c(=O)n(Cc2cn(CCCCOC(C)=O)nn2)c1=O please. NO

Short answer needed: outcome of this test for Cc1ccc(O)c(C2=NNC(c3cccc(Cl)c3)C2)c1 (stereo not given) ? NO

----------
Property: GI50; scope: individual compounds
System: M14
method.notes: NCI tumour cell line growth inhibition, 48 h
The source made the active and inactive calls. No stated cut-off is given here; in the data, active = GI50 up to about 1.1 µM and inactive = higher.

Solved entries (count: 3):
compound	GI50
CO[C@@]12C[C@@H](C)C3=CCC(C)=C3CC1=C(C)C(=O)O2	> 100 µM (inactive)
O=C(/C=C/c1c(O)ccc2ccccc12)c1cccc2ccccc12	> 100 µM (inactive)
Nc1ccc(C2=N/C(=C\c3cccc(N)c3)C(=O)O2)cc1	> 100 µM (inactive)

Which measured GI50 value corresponds to CC(=C(C(N)=O)C(N)=O)C1C=C(c2cccs2)CC(c2ccc(Cl)cc2)=C1O (stereo unspecified) ? 42.5 µM (inactive)

Give its GI50 value. Item: CCCCCCCC/C=C/CCCCCCCC(=O)N(O)C1CC(n2cc(C)c(=O)[nH]c2=O)OC1CO (stereo unspecified) 3.55 µM (inactive)

For CC1CCCN1CCCOC(=O)c1ccc(OC2C=CCCC2)cc1 (stereo unspecified) , what is its reported GI50? 16.2 µM (inactive)
